Recorded pIC50 by entry
# study-system: biotinylated wild-type menin and MLL-AF9 fusion protein (menin/MLL binding) (Homo sapiens, UniProt O00255)
# Construct: MLL-AF9-FLAG: HEK293 cells, used as cleared lysate
# Sequence (O00255 1-610): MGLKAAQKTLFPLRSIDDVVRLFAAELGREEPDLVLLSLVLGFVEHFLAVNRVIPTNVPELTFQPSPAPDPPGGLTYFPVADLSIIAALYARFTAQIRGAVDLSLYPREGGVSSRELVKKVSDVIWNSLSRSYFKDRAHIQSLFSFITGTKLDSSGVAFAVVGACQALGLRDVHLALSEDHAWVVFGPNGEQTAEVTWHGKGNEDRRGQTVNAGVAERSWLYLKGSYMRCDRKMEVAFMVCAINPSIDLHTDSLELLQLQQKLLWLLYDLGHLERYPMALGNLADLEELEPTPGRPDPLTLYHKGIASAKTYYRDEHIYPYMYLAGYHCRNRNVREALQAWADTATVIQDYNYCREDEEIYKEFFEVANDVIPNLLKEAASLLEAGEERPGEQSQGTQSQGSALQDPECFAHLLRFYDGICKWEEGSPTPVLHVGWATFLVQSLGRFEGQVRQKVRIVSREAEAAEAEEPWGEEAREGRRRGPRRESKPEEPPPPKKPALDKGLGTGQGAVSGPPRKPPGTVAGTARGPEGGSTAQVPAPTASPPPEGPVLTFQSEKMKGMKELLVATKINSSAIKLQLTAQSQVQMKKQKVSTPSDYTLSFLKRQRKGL
# assay: Assay 1: menin/MLL binding AlphaLISA assay, wild-type menin
# test-context: Table 30; column head does not say wild-type or mutated menin
pIC50: −log10 of the molar value.

I have this molecule here, CCOC(=O)c1csc(N2CCC3(CCN(c4ncncc4Oc4ccc(F)cc4-c4ccc(C#N)cc4C4CC4)C3)C2)n1 (stereo not shown) [Example 55] , and I need its recorded pIC50. ≤ 6.00

Also need COC(=O)N(C)c1cc(F)ccc1Oc1cncnc1N1CCC2(CCN(Cc3ccc4[nH]c(=O)[nH]c4c3)C2)C1 (stereo not shown) [Example 207] , thanks. > 7.00

Also need Cn1c(-c2cc(F)ccc2Oc2cncnc2N2CCC3(CCN(Cc4ccc5[nH]c(=O)[nH]c5c4)C3)C2)c(C2CC2)ccc1=O (racemic) [Example 29] , thanks. > 7.00

Switching to the query record.
I have this molecule here, CCN(C(=O)C(C)C)c1cc(F)ccc1Oc1cncnc1N1CC2(CCN(C[C@H]3CC[C@H](NC(=O)OC(C)(C)C)CC3)CC2)C1 [Example 84] , and I need its recorded pIC50. > 7.00

Source: patent US12312359B2
